Field log10 of Ki: reported value for Sodium- and chloride-dependent GABA transporter 1 (Mus musculus); entries drawn from several documents.
value-kind: log10 of Ki (log10 of the value in µM)

1. COc1ccc(C(/C=C\CN2CCCC(C(=O)O)C2)(Cc2ccccc2)c2ccc(OC)cc2)cc1 (racemic) ... 1.62
2. COc1ccc(C(C/C=C/CN2CCCC(C(=O)O)C2)c2ccc(OC)cc2)cc1 (racemic) ... 0.51
3. CN(CCCC(c1ccccc1)c1ccccc1)C(CCN)C(=O)NCc1ccc(Cl)cc1 (centres undefined) ... 1.25
4. O=C(O)[C@H]1CNCC[C@@H]1CC/C=C/c1ccccc1-c1ccccc1 (racemic) ... 1.52
5. O=C(O)[C@H]1CNCC[C@H]1CCC/C=C/c1ccccc1Cc1ccccc1 (racemic) ... 1.83
6. NCCC(C(=O)NCc1ccc(Cl)cc1)N1CCC(=C(c2ccccc2)c2ccccc2)CC1 (centres undefined) ... 1.38
7. CN(CCC=C(c1ccccc1)c1ccccc1)C(CCN)C(=O)NCc1ccccc1Cl (centres undefined) ... 1.04
8. Cc1ccc(CNC(=O)C(CCN)N2CCC(C(c3ccccc3)c3ccccc3)CC2)cc1 (centres undefined) ... 1.22
9. Cc1ccccc1-c1ccccc1/C=N/NCCN1CCCC(C(=O)O)C1 (centres undefined) ... -0.67
10. CN1CC[C@H](CCCC#Cc2ccccc2Cc2ccccc2)[C@@H](C(=O)O)C1 (racemic) ... 1.46
11. O=C(O)[C@H]1CNC[C@@H](CN/N=C/c2ccc(-c3cc(C(F)(F)F)cc(C(F)(F)F)c3)o2)C1 (racemic) ... -0.61
12. COc1ccc(C(C/C=C/CN2CCCC(C(=O)O)C2)(c2ccc(OC)cc2)c2ccc(OC)cc2)cc1 (racemic) ... 1.54
13. Cc1ccc(CNC(=O)C(CCN)N2CCN(C(c3ccccc3)c3ccccc3)CC2)cc1 (centres undefined) ... 1.80
14. O=C(O)C1CCCN(CCN/N=C/c2ccccc2-c2c(F)cc(F)cc2F)C1 (centres undefined) ... -1.51
15. COc1ccc(C(/C=C\CN2CCCC(C(=O)O)C2)(c2ccc(OC)cc2)c2ccc3c(c2)OCO3)cc1 (racemic) ... 1.73
16. COc1ccc(C(C#CCN2CCCC(C(=O)O)C2)(Cc2ccccc2)c2ccc(OC)cc2)cc1 (racemic) ... 0.33
17. O=C(O)C1CCCN(CCN/N=C/c2ccccc2-c2ccccc2Cl)C1 (centres undefined) ... -1.18
18. O=C(O)C1CCCN(C/C=C/CC(c2ccccc2)(c2ccccc2)c2ccccc2)C1 (racemic) ... 0.99
19. O=C(O)[C@H]1CNC[C@@H](CN/N=C/c2ccc(-c3ccccc3Br)o2)C1 (racemic) ... 0.16

###

Field Ki: reported value for Sodium- and chloride-dependent GABA transporter 1 (Mus musculus); entries drawn from several documents.
value-kind: Ki (µM)

1. COc1ccc(C(C#CCN2CCCC(C(=O)O)C2)c2ccc(OC)cc2)cc1 (racemic) ... 1.1
2. COc1ccc(C(/C=C/CN2CCCC(C(=O)O)C2)(c2ccc(OC)cc2)c2ccc3sccc3c2)cc1 (racemic) ... 3.31
3. O=C(O)C1CCCN(CC/C=C\C(c2ccccc2)(c2ccccc2)c2ccccc2)C1 (racemic) ... 7.41
4. O=C(O)[C@H]1CNC[C@@H](CN/N=C/c2ccc(-c3cccc(C(F)(F)F)c3)o2)C1 (racemic) ... 0.708
5. NCCC(C(=O)NCc1ccccc1)N1CCC(=C(c2ccccc2)c2ccccc2)CC1 (stereo unspecified) ... 16.6
6. COc1ccc(CC(C#CCN2CCCC(C(=O)O)C2)(c2ccc(OC)cc2)c2ccc(OC)cc2)cc1 (racemic) ... 1.91
7. O=C(O)[C@H]1CNC[C@@H](CN/N=C/c2ccc(-c3cccc(Cl)c3)o2)C1 (racemic) ... 1.86
8. Cc1ccc(C(/C=C/CN2CCCC(C(=O)O)C2)(c2ccc(C)cc2)c2ccc(C)cc2)cc1 (racemic) ... 5.5
9. O=C(O)[C@@H](O)[C@H]1CCCN1CCC=C(c1ccccc1)c1ccccc1 (racemic) ... 0.145
10. O=C(O)C1CCCN(C/C=C/C(c2ccc3c(c2)OCO3)(c2ccc3c(c2)OCO3)c2ccc3c(c2)OCO3)C1 (racemic) ... 6.31
11. O=C(O)[C@H]1CNC[C@@H](CN/N=C/c2cccc(Oc3ccccc3)c2)C1 (racemic) ... 0.955
12. O=C(O)[C@H]1CNCC[C@@H]1CCCC/C=C/c1ccccc1-c1ccccc1 (racemic) ... 71.8
13. Cc1ccc(-c2ccccc2/C=N/NCCN2CCCC(C(=O)O)C2)cc1 (stereo unspecified) ... 0.473
14. Cc1ccc(CNC(=O)C(CCN)NCCC=C(c2ccccc2)c2ccccc2)cc1 (stereo unspecified) ... 11
15. NCCC(C(=O)NCc1ccc(F)cc1)N1CCC(=C(c2ccccc2)c2ccccc2)CC1 (stereo unspecified) ... 25.1
16. NCCC(C(=O)NCc1ccc(F)cc1)N1CCC(C(c2ccccc2)c2ccccc2)CC1 (stereo unspecified) ... 33.9
17. NCCC(NCCC=C(c1ccccc1)c1ccccc1)C(=O)NCc1ccc(Cl)cc1 (stereo unspecified) ... 16.2
18. O=C(O)[C@H]1CNC[C@@H](CN/N=C/c2ccc(-c3ccccc3Cl)o2)C1 (racemic) ... 1.23
19. O=C(O)[C@H]1CNCC[C@H]1CCCC#Cc1ccccc1Cc1ccccc1 (racemic) ... 31
20. O=C(O)C1CCCN(CCN/N=C/c2ccccc2-c2ccc(Cl)cc2F)C1 (stereo unspecified) ... 0.0247
21. COc1cc(F)ccc1-c1ccccc1/C=N/NCCN1CCCC(C(=O)O)C1 (stereo unspecified) ... 0.76
22. CN(CCC=C(c1ccccc1)c1ccccc1)C(CCN)C(=O)NCc1ccccc1 (stereo unspecified) ... 12.6
23. COc1ccc(C(/C=C/CN2CCCC(C(=O)O)C2)(c2ccc(OC)cc2)c2ccc3c(c2)OCO3)cc1 (racemic) ... 8.71
24. COc1ccc(C(C#CCN2CCCC(C(=O)O)C2)(c2ccc(OC)cc2)c2ccc(OC)cc2)cc1 (racemic) ... 4.37
25. O=C(O)C1CCCN(CCC=C(c2ccccc2)c2ccccc2)C1 (stereo unspecified) ... 0.186
26. COc1cccc(F)c1-c1ccccc1/C=N/NCCN1CCCC(C(=O)O)C1 (stereo unspecified) ... 0.443
27. O=C(O)C1CCCN(CCC/C=C/c2ccccc2-c2ccc(Cl)cc2Cl)C1 (stereo unspecified) ... 0.117
28. O=C(O)C1CCCN(CCN/N=C/c2cc(F)ccc2-c2ccccc2Cl)C1 (stereo unspecified) ... 0.104
29. COc1ccc(CC(/C=C/CN2CCCC(C(=O)O)C2)(c2ccc(OC)cc2)c2ccc(OC)cc2)cc1 (racemic) ... 3.09
30. O=C(O)C1CCCN(CCN/N=C/c2cc(F)ccc2-c2ccccc2F)C1 (stereo unspecified) ... 0.264
31. C=CCCCC[C@H]1CCNC[C@@H]1C(=O)O (racemic) ... 818
